tested on: DeltatarO mutant; experiment: S. aureus survival, RN4220 and DeltatarO strains – OD600, teichoic acid synthesis inhibitors, primary screen (AID 463173); settings: S. aureus RN4220 wild type/DeltatarO growth, OD600, 18 h, stronger effect = lower value, screened at 18.75 µg/mL (by protocol)
About 4,300 (8.3%) of roughly 52,000 compounds were called active. The full list was thinned out, with actives kept by preference.
Mark met for survival under 70%, not met if at or over.

Solved entries (count: 2):
>>> category("O=C(Nc1cc2c(cc1C(=O)c1ccccc1)OCCO2)c1ccc(Br)cc1")
"not met"
>>> category("Cc1ccc(NC(=O)c2ccccc2Br)c(C(=O)c2ccccc2)c1")
"met"

Problem: Regarding COc1ccc(Nc2nc(Nc3ccc(OC)cc3OC)nc(N3CCOCC3)n2)c(OC)c1 , kindly confirm whether its survival is beneath 70%.
Result: met

Problem: Regarding COc1ccc(N2CCOCC2)cc1 , kindly confirm whether its survival is beneath 70%.
Result: not met

Problem: Regarding O=C(c1ccccc1)c1ccccc1NC(=O)c1ccccc1C(=O)O , kindly confirm whether its survival is beneath 70%.
Result: met

Problem: Regarding Cc1ccc(NC(=O)c2ccc(Cl)cc2Cl)c(C(=O)c2ccccc2)c1 , kindly confirm whether its survival is beneath 70%.
Result: met
